# systemUnderTest: L-Selectin (Homo sapiens)
# Construct: purchased Research and Development Systems 728-LS
# Sequence (P14151 39-332 limits assumed): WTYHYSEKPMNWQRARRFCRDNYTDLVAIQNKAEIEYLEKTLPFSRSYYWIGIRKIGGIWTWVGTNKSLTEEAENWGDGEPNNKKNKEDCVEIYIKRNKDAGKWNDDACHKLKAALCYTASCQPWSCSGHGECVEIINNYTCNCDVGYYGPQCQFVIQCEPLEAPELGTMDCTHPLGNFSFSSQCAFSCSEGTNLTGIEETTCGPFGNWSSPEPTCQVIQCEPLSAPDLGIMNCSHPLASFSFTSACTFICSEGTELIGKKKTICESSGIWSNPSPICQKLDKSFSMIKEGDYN
# protocolText: ELISA: inhibition of L-selectin/IgG binding to immobilized heparin (Heparin-BSA)
# protocolConditions: L-Selectin binding to heparin; 50 μM
propertyName: inhibition at 50 µM (%)

Check out these entries, answers already filled in.
{"columns": ["molecule", "measurementUnit", "inhibition at 50 µM"],
 "data": [
  ["CC1CC(C)CN(S(=O)(=O)c2ccc(C(=O)Nc3sc4c(c3C(N)=O)CCN(C(C)C)C4)cc2)C1 (stereo not drawn)", "%", 35],
  ["CCCCN(CC)S(=O)(=O)c1ccc(C(=O)Nc2sc3c(c2-c2nc4ccccc4s2)CCN(CC)C3)cc1", "%", 62],
  ["CC(C)N1CCc2c(sc(NC(=O)c3ccc(S(=O)(=O)N4CCCCC4)cc3)c2-c2nc3ccccc3s2)C1", "%", 29],
  ["COCCN(CCOC)S(=O)(=O)c1ccc(C(=O)Nc2sc3c(c2C(N)=O)CC(C)(C)NC3(C)C)cc1", "%", 23],
  ["CCN1CCc2c(sc(NC(=O)c3ccc(S(=O)(=O)N4CCN(C)CC4)cc3)c2C(N)=O)C1", "%", 30]
]}

[1] CCN1CCc2c(sc(NC(=O)c3ccc(S(=O)(=O)N(CC)Cc4ccccc4)cc3)c2C(N)=O)C1
[2] CN1CCc2c(sc(NC(=O)c3ccc(S(=O)(=O)N4CCCC4)cc3)c2-c2nc3ccccc3s2)C1
Query: Hey, between 1 and 2 which has a smaller measured inhibition at 50 µM? Provide the label of your selected option as the answer.
Reply: 2

----------
# systemUnderTest: L-Selectin (Homo sapiens, UniProt P14151)
# Construct: purchased Research and Development Systems 728-LS
# protocolText: ELISA: inhibition of L-selectin/IgG binding to immobilized heparin (Heparin-BSA)
# protocolConditions: L-Selectin binding to heparin; 50 μM
propertyName: inhibition at 50 µM (%)

Check out these entries, answers already filled in.
{"columns": ["molecule", "inhibition at 50 µM, %"],
 "data": [
  ["CN1CCc2c(sc(NC(=O)c3ccc(S(=O)(=O)N(C)c4ccccc4)cc3)c2-c2nc3ccccc3s2)C1", 44],
  ["CCN1CCc2c(sc(NC(=O)c3ccc(S(=O)(=O)N4CCCCCC4)cc3)c2-c2nc3ccccc3s2)C1", 46],
  ["CC1CCCN(S(=O)(=O)c2ccc(C(=O)Nc3sc4c(c3-c3nc5ccccc5s3)CCN(C)C4)cc2)C1 (stereo not shown)", 23],
  ["CC1CC(C)CN(S(=O)(=O)c2ccc(C(=O)Nc3sc4c(c3-c3nc5ccccc5s3)CCN(C)C4)cc2)C1 (stereo not shown)", 24]
]}

[I] CCCN(CCC)S(=O)(=O)c1ccc(C(=O)Nc2sc3c(c2-c2nc4ccccc4s2)CCN(C)C3)cc1
[II] CCN(CC)S(=O)(=O)c1ccc(C(=O)Nc2sc3c(c2-c2nc4ccccc4s2)CCN(C)C3)cc1
[III] CCN(CC)S(=O)(=O)c1ccc(C(=O)Nc2sc3c(c2C(N)=O)CC(C)(C)NC3(C)C)cc1
Query: Sort entries by inhibition at 50 µM from minimum to maximum value. List each label, following the requested order.
Reply: I, III, II
